The entries below are paired with their reported pIC50.
Assay Target: UniProt:P08253
Sequence (P08253 110-660): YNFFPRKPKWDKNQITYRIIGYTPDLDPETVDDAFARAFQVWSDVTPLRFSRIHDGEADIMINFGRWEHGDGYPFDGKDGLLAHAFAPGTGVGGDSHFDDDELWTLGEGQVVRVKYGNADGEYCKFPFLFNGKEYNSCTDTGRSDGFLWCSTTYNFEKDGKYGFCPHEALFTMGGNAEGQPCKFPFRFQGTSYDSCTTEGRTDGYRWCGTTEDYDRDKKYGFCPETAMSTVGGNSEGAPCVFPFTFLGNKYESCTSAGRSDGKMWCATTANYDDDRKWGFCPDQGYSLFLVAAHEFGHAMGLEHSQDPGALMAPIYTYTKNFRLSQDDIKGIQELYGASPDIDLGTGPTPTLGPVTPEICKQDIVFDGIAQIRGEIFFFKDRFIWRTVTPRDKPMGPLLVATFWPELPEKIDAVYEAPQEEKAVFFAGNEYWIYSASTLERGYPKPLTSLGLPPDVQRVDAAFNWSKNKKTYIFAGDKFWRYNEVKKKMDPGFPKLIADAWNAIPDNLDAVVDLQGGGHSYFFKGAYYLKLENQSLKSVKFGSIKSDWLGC
pIC50: −log10 of the molar value.
Attribute Measured: pIC50

>>> df
                               compound  reported_value
0  CN(C)CCNC(=O)P(=O)(O)O [Compound 26]            7.60
1   O=C(NC1CCCCC1)P(=O)(O)O [Example 5]            7.10

---

System: murine melanoma
Assay Summary: Metastasis formation in the murine melanoma model
Format: in vivo, mice
Experimental Context: 50 mg/kg daily injections for 21 d, lung tumors counted, vs untreated animals
Attribute Measured: % Inhibition of Metastasis Formation 50 mg/kg for 21 d (%)

>>> df
                         structure_notation  units_text  reported_value
0                    CN(C)CCNC(=O)P(=O)(O)O           %              73
1                    O=C(NC1CCCC1)P(=O)(O)O           %              70
2  CNC(=O)[C@H](Cc1ccc(OC)cc1)NC(=O)[C@H](CC(C)C)NC(=O)P(=O)(O)O           %              75

---

The entries below are paired with their reported % Inhibition of Capillary Formation 50 UM.
System: Endothelial cells
Assay Summary: Endothelial cell tube formation (capillary formation)
Type: cell-based
Experimental Context: 50 µM
Attribute Measured: % Inhibition of Capillary Formation 50 UM (%)

>>> print(df.to_string())
                         structure_notation  reported_value
0                    O=C(NC1CCCC1)P(=O)(O)O              70
1               O=C(NCCSCc1ccccc1)P(=O)(O)O              58
2  CNC(=O)[C@@H](NC(=O)[C@H](CC(C)C)NC(=O)P(=O)(O)O)C(C)C              42
3  CNC(=O)[C@H](Cc1ccc(OC)cc1)NC(=O)[C@H](CC(C)C)NC(=O)P(=O)(O)O              38
4  CNC(=O)[C@H](Cc1ccccc1)NC(=O)[C@H](CC(C)C)NC(=O)P(=O)(O)O              60

Values from patent US7468359B2
